- assaySystem: RXRα (Homo sapiens, UniProt P19793)
- Construct: expressed in transfected cells
- Sequence (P19793 whole entry): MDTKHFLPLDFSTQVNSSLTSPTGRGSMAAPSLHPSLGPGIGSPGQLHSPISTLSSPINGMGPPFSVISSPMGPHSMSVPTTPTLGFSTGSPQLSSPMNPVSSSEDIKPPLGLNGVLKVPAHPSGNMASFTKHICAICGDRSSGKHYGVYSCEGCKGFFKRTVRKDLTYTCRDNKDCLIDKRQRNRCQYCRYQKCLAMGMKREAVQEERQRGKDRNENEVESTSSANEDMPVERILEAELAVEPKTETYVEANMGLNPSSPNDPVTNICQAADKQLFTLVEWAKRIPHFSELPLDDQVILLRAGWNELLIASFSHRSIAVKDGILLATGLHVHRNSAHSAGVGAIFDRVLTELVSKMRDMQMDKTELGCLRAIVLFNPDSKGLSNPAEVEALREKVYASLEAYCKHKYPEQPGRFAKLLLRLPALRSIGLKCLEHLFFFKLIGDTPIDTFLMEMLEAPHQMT
- protocol: holoreceptor transactivation assay, RXRα
- Type: cell-based
- measurementParameters: relative to 10^-6 M cyclopropyl penta-2,4-dienoic acid reference (RXRs); read-out: % efficacy (RXRα transactivation)
metricName: Emax (%)

Fill blank: measured Emax of the compound CCN(c1ccc(C(=O)O)cc1)c1cc2c(c(C(C)C)c1C)OCC2(C)C [Compound 70] is ____.
119

[P] CC(C)N(c1ccc(C(=O)O)cc1)c1ccc2c(c1)C(C)(C)OC2(C)C [Compound 87]
[Q] CC(C)N(c1ccc(C(=O)O)cc1)c1cc(C(C)(C)C)c2c(c1)C(C)(C)CO2 [Compound 44]
Which is greater in Emax, the first item P or the second item Q ? Answer = label.
P

---

Data export: pKi values recorded with RXRα (Homo sapiens).
pKi: −log10 of the molar value.
metricName: pKi

Record request: pKi value, item CCN(c1ccc(C(=O)O)cc1)c1cc(C)c2c(c1)C(C)(C)CO2
4.82

Need pKi, item CCN(c1ccc(C(=O)O)cc1)c1ccc2c(c1)C(C)(C)OC2(C)C
6.00

[A] CC(C)N(c1ccc(C(=O)O)cc1)c1cc(C(C)(C)C)c2c(c1)C(C)(C)CO2
[B] Cc1cc(N(C)c2ccc(C(=O)O)cc2)cc2c1OCC2(C)C
// compare: A vs B , metric pKi, want the smaller Respond with the label that goes with your answer.
B
(B: 5.00, A: 7.96)

---

- assaySystem: RARγ (Homo sapiens)
pKi: −log10 of the molar value.
metricName: pKi

Example entries and their recorded answers appear below.
Given the entry CCN(c1ccc(C(=O)O)cc1)c1cc(C(C)(C)C)c2c(c1)C(C)(C)CO2 [Compound 32] , report its measured pKi.
5.70

So what does the record say about pKi for CC(C)c1cc(N(c2ccc(C(=O)O)cc2)C(C)C)cc2c1OCC2(C)C [Compound 43] ?
5.59

[1] CCN(c1ccc(C(=O)O)cc1)c1cc(C(C)C)c2c(c1)C(C)(C)CO2 [Compound 31]
[2] CCc1cc(N(CC)c2ccc(C(=O)O)cc2)cc2c1OCC2(C)C [Compound 29]
Lab note: check whether 1 or 2 has the lower measured pKi. # answer = label of selected item
2
(2: 5.08, 1: 5.40)

---

Each item that follows carries a reported pKi.
- assaySystem: RXRβ
- protocol: ligand binding assay, RXRβ
- measurementParameters: read-out: RXR Bind Ki β
pKi: −log10 of the molar value.

I have this compound here, CCN(c1ccc(C(=O)O)cc1)c1cc(C)c2c(c1)C(C)(C)CO2 , and I need its recorded pKi.
< 4.00

Consider the compound shown here: CCc1cc(N(c2ccc(C(=O)O)cc2)C(C)C)cc2c1OCC2(C)C What is its recorded pKi?
< 6.00

Now consider the entry below.
What does the data say about its pKi? Entry: CCc1cc(N(C)c2ccc(C(=O)O)cc2)cc2c1OCC2(C)C
< 5.00

---

- assaySystem: RXRγ (Mus musculus, UniProt P28705)
- Sequence (P28705 whole entry): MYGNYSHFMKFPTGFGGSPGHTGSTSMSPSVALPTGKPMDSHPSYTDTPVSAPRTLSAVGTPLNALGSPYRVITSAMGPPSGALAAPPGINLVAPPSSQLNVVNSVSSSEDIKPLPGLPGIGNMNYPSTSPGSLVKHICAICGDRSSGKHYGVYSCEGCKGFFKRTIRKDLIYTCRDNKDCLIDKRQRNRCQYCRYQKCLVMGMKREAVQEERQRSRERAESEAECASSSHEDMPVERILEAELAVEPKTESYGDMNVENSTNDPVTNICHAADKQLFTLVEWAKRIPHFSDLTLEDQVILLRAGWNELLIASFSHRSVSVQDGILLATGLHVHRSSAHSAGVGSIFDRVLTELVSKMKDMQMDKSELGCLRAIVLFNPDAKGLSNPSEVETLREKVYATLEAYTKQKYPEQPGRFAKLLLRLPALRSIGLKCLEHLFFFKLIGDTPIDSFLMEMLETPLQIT
- protocol: holoreceptor transactivation assay, RXRγ
- measurementParameters: holoreceptor transactivation, RXRγ; read-out: RXR Trans. EC50 γ
pEC50: −log10 of the molar value.
# reported pEC50; entries follow

Sample records with pEC50:
Which measured pEC50 value corresponds to CC(C)c1cc(N(C)c2ccc(C(=O)O)cc2)cc2c1OCC2(C)C ?
< 6.00

Find the recorded pEC50 belonging to CCN(c1ccc(C(=O)O)cc1)c1cc(C)c2c(c1)C(C)(C)CO2 and report it.
< 6.00

New cases:
Need pEC50 of CCc1cc(N(C)c2ccc(C(=O)O)cc2)cc2c1OCC2(C)C , thanks.
< 6.00

---

Below, each entry is listed alongside its reported Ki.
- assaySystem: UniProtKB P10276
- Sequence (P10276 whole entry): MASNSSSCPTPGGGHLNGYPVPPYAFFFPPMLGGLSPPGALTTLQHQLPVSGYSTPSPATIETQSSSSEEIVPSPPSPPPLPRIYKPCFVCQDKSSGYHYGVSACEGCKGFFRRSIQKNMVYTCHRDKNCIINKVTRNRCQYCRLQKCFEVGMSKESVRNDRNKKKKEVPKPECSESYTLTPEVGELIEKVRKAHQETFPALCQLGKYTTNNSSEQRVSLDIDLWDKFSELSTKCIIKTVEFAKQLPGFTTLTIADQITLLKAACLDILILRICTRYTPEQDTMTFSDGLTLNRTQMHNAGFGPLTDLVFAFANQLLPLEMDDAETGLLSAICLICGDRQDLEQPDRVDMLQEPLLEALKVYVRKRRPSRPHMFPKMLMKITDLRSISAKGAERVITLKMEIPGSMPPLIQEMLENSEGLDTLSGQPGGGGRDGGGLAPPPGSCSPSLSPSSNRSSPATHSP
- protocol: ligand binding assay, RARα
- measurementParameters: read-out: RAR Bind. Ki α

# get_value(readout='Ki', item= CCc1cc(N(CC)c2ccc(C(=O)O)cc2)cc2c1OCC2(C)C [Compound 29] )
> 10 µM

Item under review: CCCCN(c1ccc(C(=O)O)cc1)c1ccc2c(c1)C(C)(C)OC2(C)C [Compound 85] . Reported Ki?
> 10 µM

Endpoint output: Ki of Cc1cc(N(c2ccc(C(=O)O)cc2)C(C)C)cc2c1OCC2(C)C [Compound 41] . Value?
> 30 µM

Next:
Could you tell me which Ki is on file for CCN(c1ccc(C(=O)O)cc1)c1ccc2c(c1)C(C)(C)OC2(C)C [Compound 83] ?
> 10 µM

---

- assaySystem: RXRβ (Mus musculus, UniProt P28704)
- Sequence (P28704 1-520): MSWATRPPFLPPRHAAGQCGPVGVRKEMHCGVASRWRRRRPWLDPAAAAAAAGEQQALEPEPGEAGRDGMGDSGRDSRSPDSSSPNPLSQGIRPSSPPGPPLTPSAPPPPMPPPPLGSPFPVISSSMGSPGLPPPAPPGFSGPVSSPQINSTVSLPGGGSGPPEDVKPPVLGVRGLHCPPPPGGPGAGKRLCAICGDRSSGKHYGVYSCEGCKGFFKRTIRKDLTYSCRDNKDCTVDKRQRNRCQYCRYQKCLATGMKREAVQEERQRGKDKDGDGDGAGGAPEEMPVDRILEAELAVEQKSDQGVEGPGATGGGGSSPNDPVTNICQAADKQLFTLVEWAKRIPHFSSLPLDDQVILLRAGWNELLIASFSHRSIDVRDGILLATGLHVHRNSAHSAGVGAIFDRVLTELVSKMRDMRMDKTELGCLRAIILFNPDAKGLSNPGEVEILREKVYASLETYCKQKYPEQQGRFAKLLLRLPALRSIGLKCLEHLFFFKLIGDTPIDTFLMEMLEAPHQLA
- protocol: holoreceptor transactivation assay, RXRβ
- measurementParameters: holoreceptor transactivation, RXRβ; read-out: RXR Trans. EC50 β
pEC50: −log10 of the molar value.
Parameter pEC50: see the listing below.

A selection of reference data follows.
Need pEC50 of CCc1cc(N(c2ccc(C(=O)O)cc2)C(C)C)cc2c1OCC2(C)C , thanks.
< 6.00

Reported pEC50, compound CC(C)c1cc(N(C)c2ccc(C(=O)O)cc2)cc2c1OCC2(C)C : ____
< 6.00

Moving on to another compound below.
Item under review: CCN(c1ccc(C(=O)O)cc1)c1cc(C)c2c(c1)C(C)(C)CO2 . Reported pEC50?
< 6.00

---

Below, each of the compounds is paired with its reported Ki value.
- assaySystem: RXRβ
- protocol: ligand binding assay, RXRβ
- measurementParameters: read-out: RXR Bind Ki β

Look up Ki: Cc1cc(N(C)c2ccc(C(=O)O)cc2)cc2c1OCC2(C)C
> 100 µM

Please report the recorded Ki for Cc1cc(N(c2ccc(C(=O)O)cc2)C(C)C)cc2c1OCC2(C)C .
> 100 µM

***
Look up Ki for this compound: CCCCN(c1ccc(C(=O)O)cc1)c1ccc2c(c1)C(C)(C)OC2(C)C
> 1 µM

---

Attribute: Ki
- assaySystem: RARγ (Homo sapiens, UniProt P13631)
- Sequence (P13631 1-454): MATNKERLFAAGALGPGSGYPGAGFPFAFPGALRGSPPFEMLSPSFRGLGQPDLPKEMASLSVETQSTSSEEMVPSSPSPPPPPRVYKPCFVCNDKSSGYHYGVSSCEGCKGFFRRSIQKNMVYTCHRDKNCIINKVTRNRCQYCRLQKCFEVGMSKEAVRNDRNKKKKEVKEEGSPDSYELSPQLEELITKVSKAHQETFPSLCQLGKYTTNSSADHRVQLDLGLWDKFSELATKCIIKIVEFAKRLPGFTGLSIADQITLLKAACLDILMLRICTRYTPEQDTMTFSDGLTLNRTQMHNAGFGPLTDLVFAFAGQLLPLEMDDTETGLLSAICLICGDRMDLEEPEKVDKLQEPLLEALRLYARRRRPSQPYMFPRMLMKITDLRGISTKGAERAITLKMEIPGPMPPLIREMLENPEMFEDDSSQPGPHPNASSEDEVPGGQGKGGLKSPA

Notebook: pull reported Ki for RARγ (Homo sapiens, UniProt P13631), entry CCCN(c1ccc(C(=O)O)cc1)c1ccc2c(c1)C(C)(C)OC2(C)C
> 10 µM

Which Ki is reported with RARγ (Homo sapiens, UniProt P13631) for this entry: CCN(c1ccc(C(=O)O)cc1)c1ccc2c(c1)C(C)(C)OC2(C)C ?
> 10 µM

Provide the documented Ki with RARγ (Homo sapiens, UniProt P13631) as the system for Cc1cc(N(c2ccc(C(=O)O)cc2)C(C)C)cc2c1OCC2(C)C
> 30 µM

Then there is this molecule:
Form entry - test system: RARγ (Homo sapiens, UniProt P13631); read-out: Ki; molecule: CC(C)N(c1ccc(C(=O)O)cc1)c1ccc2c(c1)C(C)(C)OC2(C)C
> 10 µM
